B1: RPS21 (parent)
chain: AEVSWEPGRREGCDICAGKAGCPI

Variants of: B1
ASSAY NAME: protein stability index of a GFP-peptide fusion (GPS, HEK-293T) (PSI 1-6); higher = more stable;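 note: lentivirally expressed fusions sorted by FACS into six bins by GFP to DsRed ratio, PSI derived from sequencing read proportions per bin multiplied by bin number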
MEASUREMENT PARAMETERS: c terminus: a fixed tail appended
# protein stability index per entry
VALUE TYPE: protein stability index

SEQUENCE INPUT | ENDPOINT VALUE
AEVSDEPGRREGCDICAGKAGCPI [W5D] | 4.85
ATVSWEPGRREGCDICAGKAGCPI [E2T] | 2.84
AEVSWHPGRREGCDICAGKAGCPI [E6H] | 5.82
AEVSWWPGRREGCDICAGKAGCPI [E6W] | 1.56
AEVSWEPGRREGCMICAGKAGCPI [D14M] | 2.18
AEVSWEPGRPEGCDICAGKAGCPI [R10P] | 1.9
AEVSWEPGQREGCDICAGKAGCPI [R9Q] | 3.75
AEVNWEPGRREGCDICAGKAGCPI [S4N] | 4.34
AEVSWEPGRREGTDICAGKAGCPI [C13T] | 4.38
AYVSWEPGRREGCDICAGKAGCPI [E2Y] | 2.68
AEVSQEPGRREGCDICAGKAGCPI [W5Q] | 4.19
AEVSWEPGRREGCDICAAKAGCPI [G18A] | 3.08
AEVSWEPGREEGCDICAGKAGCPI [R10E] | 2.81
AEVDWEPGRREGCDICAGKAGCPI [S4D] | 3.41
AEVSWEPGRRDGCDICAGKAGCPI [E11D] | 3.37
AEVSWEPGRREGCDICAGKVGCPI [A20V] | 2.59
AEVSWEYGRREGCDICAGKAGCPI [P7Y] | 2.9
AEVSWEPGRREGCVICAGKAGCPI [D14V] | 3.22
AEVSWEPGRREGYDICAGKAGCPI [C13Y] | 3.84
AEVSWEPGRREGCDICAGKHGCPI [A20H] | 3.25
AEKSWEPGRREGCDICAGKAGCPI [V3K] | 4
AEVSWEPGRREGCDICFGKAGCPI [A17F] | 2.3
